Target Or Test System: MCH receptor (Homo sapiens)
Construct: expressed in transfected cells; host or cells: CHO cells (membrane preparation)
Sequence (Q99705 whole entry): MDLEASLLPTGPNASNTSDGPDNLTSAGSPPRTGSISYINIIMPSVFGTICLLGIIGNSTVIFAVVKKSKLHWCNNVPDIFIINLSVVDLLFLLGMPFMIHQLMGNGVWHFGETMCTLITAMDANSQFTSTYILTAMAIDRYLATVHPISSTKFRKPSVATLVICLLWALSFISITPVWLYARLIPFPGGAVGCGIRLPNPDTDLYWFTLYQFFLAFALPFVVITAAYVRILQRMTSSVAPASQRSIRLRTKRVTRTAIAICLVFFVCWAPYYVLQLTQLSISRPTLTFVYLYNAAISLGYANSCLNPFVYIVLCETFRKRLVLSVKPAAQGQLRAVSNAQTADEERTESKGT
Assay Name: MCH receptor binding assay ([125I]-MCH, SPA)
Experimental Context: membranes from CHO cells expressing the MCH receptor, read-out: Ki
Quantity Name: Ki
Report as: number unit

GET /value?item= NCc1ccc(C2=CCC(N(CCN3CCCC3)C(=O)Nc3ccc(F)c(Cl)c3)CC2)s1 (stereo not shown) &field=Ki returns 8 nM

---

Target Or Test System: hERG channels (Homo sapiens, UniProt Q12809)
Construct: expressed in transfected cells
Sequence (Q12809 whole entry): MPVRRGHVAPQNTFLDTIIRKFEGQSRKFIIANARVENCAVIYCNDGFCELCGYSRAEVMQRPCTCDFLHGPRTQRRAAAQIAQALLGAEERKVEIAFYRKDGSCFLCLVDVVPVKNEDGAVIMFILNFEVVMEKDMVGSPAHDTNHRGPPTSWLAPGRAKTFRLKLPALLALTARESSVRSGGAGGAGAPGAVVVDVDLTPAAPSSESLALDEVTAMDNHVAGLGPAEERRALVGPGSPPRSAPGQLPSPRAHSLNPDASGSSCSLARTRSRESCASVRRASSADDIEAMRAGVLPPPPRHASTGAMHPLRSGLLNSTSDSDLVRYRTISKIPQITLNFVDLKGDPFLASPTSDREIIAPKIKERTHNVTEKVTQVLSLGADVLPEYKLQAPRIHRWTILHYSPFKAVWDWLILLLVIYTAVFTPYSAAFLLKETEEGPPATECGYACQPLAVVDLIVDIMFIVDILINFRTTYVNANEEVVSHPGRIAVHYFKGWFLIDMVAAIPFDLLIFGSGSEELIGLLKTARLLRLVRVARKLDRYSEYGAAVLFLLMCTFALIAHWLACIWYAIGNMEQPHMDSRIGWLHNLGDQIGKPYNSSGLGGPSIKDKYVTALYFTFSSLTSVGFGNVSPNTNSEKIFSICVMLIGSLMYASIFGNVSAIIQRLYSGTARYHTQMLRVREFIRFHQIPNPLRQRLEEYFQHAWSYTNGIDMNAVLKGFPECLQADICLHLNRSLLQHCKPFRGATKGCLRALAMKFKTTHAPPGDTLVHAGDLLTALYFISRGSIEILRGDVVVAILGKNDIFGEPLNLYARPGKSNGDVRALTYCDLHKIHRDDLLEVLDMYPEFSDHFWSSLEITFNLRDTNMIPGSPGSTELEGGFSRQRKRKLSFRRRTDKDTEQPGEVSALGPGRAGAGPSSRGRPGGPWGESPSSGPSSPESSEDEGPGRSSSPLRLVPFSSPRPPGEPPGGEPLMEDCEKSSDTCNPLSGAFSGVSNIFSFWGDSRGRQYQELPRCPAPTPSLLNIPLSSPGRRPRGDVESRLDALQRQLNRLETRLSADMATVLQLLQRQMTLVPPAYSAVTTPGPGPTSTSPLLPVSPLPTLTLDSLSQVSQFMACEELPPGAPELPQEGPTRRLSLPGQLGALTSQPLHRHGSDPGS
Assay Name: Herg-Rb two phase screen (rubidium efflux)
Type: cell-based
Experimental Context: test article at 5 μg/ml; CHO cells expressing hERG; relative to complete block with 10 μM dofetilide
Quantity Name: herg-Rb 5 μg/mL (%)
Record the value in %, omitting the unit from your answer.

Recorded herg-Rb 5 μg/mL (%), per entry:
Compound: NCc1ncc([C@]23CC[C@@H](N(CCN4CC[C@H](O)C4)C(=O)Nc4ccc(F)c(C(F)(F)F)c4)[C@H]2C3)s1 [Example 13]
Target Or Test System: hERG channels (Homo sapiens, UniProt Q12809)
Unit Annotation: %
Recorded Number: 8
--
Compound: NCc1ncc([C@]23CC[C@@H](N(CCCN4CC[C@@H](O)C4)C(=O)Nc4ccc(F)c(C(F)(F)F)c4)C2C3)s1 (some centres unmarked) [Example 18]
Target Or Test System: hERG channels (Homo sapiens, UniProt Q12809)
Unit Annotation: %
Recorded Number: −4
--
Compound: NCc1ncc(C2=CCC(N(CCN3CCCC3)C(=O)Nc3ccc(F)c(Cl)c3)CC2)s1 (centres unmarked) [Example 7]
Target Or Test System: hERG channels (Homo sapiens, UniProt Q12809)
Unit Annotation: %
Recorded Number: 10
--
Compound: O=C(Nc1ccc(F)c(Cl)c1)N(CCN1CCCC1)C1CC=C(c2ccc(CN3CC[C@H](O)C3)s2)CC1 (some centres unmarked) [Example 5]
Target Or Test System: hERG channels (Homo sapiens, UniProt Q12809)
Unit Annotation: %
Recorded Number: 6
--
Compound: O=C(Nc1ccc(F)c(Cl)c1)N(CCN1CCCC1)C1CC=C(c2ccc(CN3CCCC3)s2)CC1 (centres unmarked) [Example 4]
Target Or Test System: hERG channels (Homo sapiens, UniProt Q12809)
Unit Annotation: %
Recorded Number: 20

Here is the next item to consider.
Param item: NCc1ncc([C@]23CC[C@@H](N(CCN4CCCC4)C(=O)Nc4ccc(F)c(C(F)(F)F)c4)[C@H]2C3)s1 [Example 12] ; param system: hERG channels (Homo sapiens, UniProt Q12809); output herg-Rb 5 μg/mL (%): 16

---

Target Or Test System: hERG channels (Homo sapiens, UniProt Q12809)
Construct: expressed in transfected cells
Assay Name: Herg-Rb two phase screen (rubidium efflux)
Assay type: cell-based
Experimental Context: test article at 1.5 μg/ml; CHO cells expressing hERG; relative to complete block with 10 μM dofetilide
Quantity Name: herg-Rb 1.5 μg/mL (%)
Record the value in %, omitting the unit from your answer.

Recorded herg-Rb 1.5 μg/mL (%), per entry:
Molecule: NCc1ncc([C@]23CC[C@@H](N(CCN4CCCC4)C(=O)Nc4ccc(F)c(C(F)(F)F)c4)[C@H]2C3)s1
Unit Annotation: %
Recorded Number: 13
--
Molecule: NCc1ncc([C@]23CC[C@@H](N(CCCN4CC[C@H](O)C4)C(=O)Nc4ccc(F)c(C(F)(F)F)c4)C2C3)s1 (stereo partly shown)
Unit Annotation: %
Recorded Number: −4
--
Molecule: NCc1ncc([C@]23CC[C@@H](N(CCN4CC[C@H](O)C4)C(=O)Nc4ccc(F)c(C(F)(F)F)c4)[C@H]2C3)s1
Unit Annotation: %
Recorded Number: 13
--
Molecule: O=C(Nc1ccc(F)c(Cl)c1)N(CCN1CCCC1)C1CC=C(c2ccc(CN3CCCC3)s2)CC1 (stereo not shown)
Unit Annotation: %
Recorded Number: −1
--
Molecule: NCc1ncc([C@]23CC[C@@H](N(CCCN4CC5CC4CN5)C(=O)Nc4ccc(F)c(C(F)(F)F)c4)C2C3)s1 (stereo partly shown)
Unit Annotation: %
Recorded Number: 0
--
Molecule: NCc1ncc(C2=CCC(N(CCN3CCCC3)C(=O)Nc3ccc(F)c(C(F)(F)F)c3)CC2)s1 (stereo not shown)
Unit Annotation: %
Recorded Number: 9

GET /value?item= O=C(Nc1ccc(F)c(Cl)c1)N(CCN1CCCC1)C1CC=C(c2ccc(CN3CCC3)s2)CC1 (stereo not shown) &field=herg-Rb 1.5 μg/mL (%) returns −1
